Data credit: paper PMC6182421

# measured.on: MCL-1/FITC-BID (Homo sapiens, UniProt Q07820)
# Construct: made in house
# Sequence (Q07820 173-327 limits assumed): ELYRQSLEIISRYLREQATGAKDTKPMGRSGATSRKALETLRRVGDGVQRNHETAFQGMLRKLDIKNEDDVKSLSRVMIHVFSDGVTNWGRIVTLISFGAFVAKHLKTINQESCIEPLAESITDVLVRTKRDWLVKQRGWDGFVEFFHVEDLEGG
# procedure.summary: Fluorescence anisotropy competition assay, MCL-1/FITC-BID
# Type: binding
measurement.type: IC50 (µM)
Give bare numbers, in µM.

Value of measured IC50 for the entry Ac-GEILALKQEILRLIGDNVALKQEILNLKQGYG-NH2 [CC-Di_E1] : 0.7

###

# procedure.summary: Circular dichroism spectroscopy and thermal denaturation
# Type: physicochemical
# assay.setup: MRE222 monitored 5 to 90 °C at 40 °C h^–1, PBS pH 7.4, 50 μM of each peptide
measurement.type: TM (midpoint of thermal denaturation) (°C)
One number for each entry, in °C.

Ac-G KIAALKQ KIAALKK KNAALKQ KIAALKQ GYG-NH [CC-Di-B, basic peptide of the obligate heterodimer CC-Di-AB] : 38
Ac-G KIAALKQ KILRLIG DNVALKQ KIAALKQ GYG-NH [CC-Di-B_S, basic peptide with the short motif graft that should partner peptide CC-Di-A] : 27

Value of measured TM (midpoint of thermal denaturation) for the entry Ac-G EIAALKQ EIAALKK ENAALKQ EIAALKQ GYG-NH [CC-Di, de novo designed homodimeric coiled-coil peptide, unmodified scaffold] : 75

###

# procedure.summary: Circular dichroism spectroscopy and thermal denaturation
# Type: physicochemical
# assay.setup: from MRE222, 20 °C, PBS pH 7.4, 50 μM of each peptide; calculation per ref 68
measurement.type: % helicity (%)
Give bare numbers, in %.

The examples below pair each entry with its known result.
Ac-G KIAALKQ KIAALKK KNAALKQ KIAALKQ GYG-NH [CC-Di-B, basic peptide of the obligate heterodimer CC-Di-AB] : 71
Ac-G EIAALEQ EIAALEK ENAALEQ EIAALEQ GYG-NH [CC-Di-A, acidic peptide of the obligate heterodimer CC-Di-AB] : 19
Ac-G EIAALKQ EIAALKK ENAALKQ EIAALKQ GYG-NH [CC-Di, de novo designed homodimeric coiled-coil peptide, unmodified scaffold] : 90

Field: next substance
Value of measured % helicity for the entry Ac-G KIAALKQ KILRLIG DNVALKQ KIAALKQ GYG-NH [CC-Di-B_S, basic peptide with the short motif graft that should partner peptide CC-Di-A] : 46
